Molecular target: T1, human IgE CH3-CH4-M1′/Fc fusion protein (human)
T1 construct: also called M1′ (immobilized)
T1 sequence (chain, as listed by the source limits assumed): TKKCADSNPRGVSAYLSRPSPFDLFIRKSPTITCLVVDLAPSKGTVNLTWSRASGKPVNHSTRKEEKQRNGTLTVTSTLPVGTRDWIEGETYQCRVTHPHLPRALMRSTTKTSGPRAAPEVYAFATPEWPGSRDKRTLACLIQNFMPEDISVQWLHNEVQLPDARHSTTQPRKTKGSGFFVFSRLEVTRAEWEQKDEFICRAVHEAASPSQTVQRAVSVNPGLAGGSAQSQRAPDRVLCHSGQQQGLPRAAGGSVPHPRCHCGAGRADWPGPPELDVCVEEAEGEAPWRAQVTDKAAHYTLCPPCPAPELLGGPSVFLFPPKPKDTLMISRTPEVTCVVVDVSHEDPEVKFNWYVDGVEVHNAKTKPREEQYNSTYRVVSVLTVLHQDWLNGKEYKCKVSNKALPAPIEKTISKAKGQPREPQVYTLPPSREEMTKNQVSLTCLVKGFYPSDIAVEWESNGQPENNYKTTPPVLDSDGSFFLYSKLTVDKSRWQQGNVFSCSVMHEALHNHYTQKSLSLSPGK
Assay: SPR Biacore 2000, M1′-Fc immobilized
pKd: −log10 of the molar value.
Let's look at some binders and their measured pKd.
PROPERTY MEASURED: pKd

BINDER	RECORDED NUMBER
humanized anti-IgE/M1′ antibody 26A11.v1 (antibody, V domains shown, direct CDR graft, produced as IgG in 293 cells) VH: EVQLVESGGGLVQPGGSLRLSCAASGYTFTDYYMMWVRQAPGKGLEWVGDINPNNYDTSYNQKFKGRFTISADTSKNTAYLQMNSLRAEDTAVYYCASKAYWGQGTLVTVSS VL: DIQMTQSPSSLSASVGDRVTITCRSSQDISNSLNWYQQKPGKAPKLLIYSTSRLHSGVPSRFSGSGSGTDFTLTISSLQPEDFATYYCQQGHTLPWTFGQGTKVEIKR	8.77
humanized anti-IgE/M1′ antibody 26A11.v13 (antibody, V domains shown, produced as IgG) VH: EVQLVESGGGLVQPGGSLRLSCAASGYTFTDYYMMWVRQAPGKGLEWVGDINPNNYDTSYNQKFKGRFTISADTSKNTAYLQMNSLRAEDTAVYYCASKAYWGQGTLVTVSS VL: DIQMTQSPSSLSASVGDRVTITCRSSQDISSSLNWYQQKPGKAPKLLIYSTSRLHSGVPSRFSGSGSGTDFTLTISSLQPEDFATYYCQQGHTLPWTFGQGTKVEIKR	8.40
humanized anti-IgE/M1′ antibody 26A11.v14 (antibody, V domains shown, produced as IgG) VH: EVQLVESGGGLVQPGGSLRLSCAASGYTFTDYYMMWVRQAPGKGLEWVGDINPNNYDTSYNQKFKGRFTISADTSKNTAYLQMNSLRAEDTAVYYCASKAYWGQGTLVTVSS VL: DIQMTQSPSSLSASVGDRVTITCRSSQDISQSLNWYQQKPGKAPKLLIYSTSRLHSGVPSRFSGSGSGTDFTLTISSLQPEDFATYYCQQGHTLPWTFGQGTKVEIKR	8.41
humanized anti-IgE/M1′ antibody 26A11.v16 (antibody, V domains shown, produced as IgG) VH: EVQLVESGGGLVQPGGSLRLSCAASGYTFTDYYIMWVRQAPGKGLEWVGDINPNNYDTSYNQKFKGRFTISADTSKNTAYLQMNSLRAEDTAVYYCASKAYWGQGTLVTVSS VL: DIQMTQSPSSLSASVGDRVTITCRSSQDISQSLNWYQQKPGKAPKLLIYSTSRLHSGVPSRFSGSGSGTDFTLTISSLQPEDFATYYCQQGHTLPWTFGQGTKVEIKR	8.06
humanized anti-IgE/M1′ antibody 47H4.v5 (antibody, V domains shown, huIgG1; also called 47H4v5 huIgG1; 47H5 v.5) VH: EVQLVESGGGLVQPGGSLRLSCAASGFTFSDYGIAWVRQAPGKGLEWVAFISDLAYTIYYADTVTGRFTISRDNSKNTLYLQMNSLRAEDTAVYYCARDNWDAMDYWGQGTLVTVSS VL: DIQMTQSPSSLSASVGDRVTITCRSSQSLVHNNANTYLHWYQQKPGKAPKLLIYKVSNRFSGVPSRFSGSGSGTDFTLTISSLQPEDFATYYCSQNTLVPWTFGQGTKVEIKR	7.64
